Attribute: MIC
System: Bacillus subtilis
method.notes: Antimicrobial activity against Bacillus subtilis NCIM 2999 assessed as growth inhibition by agar streak dilution method
Assay type: functional
# number only, unit µg/mL dropped from output

Example cases with answers are listed next.
INSERT INTO measurements (compound, test_value) VALUES
  ('NC(CCC(=O)n1c(Cc2ccccc2)nc2ccccc2c1=O)C(=O)O (stereo not given)', 50),
  ('NC(CCC(=O)n1c(-c2ccc(O)cc2)nc2ccccc2c1=O)C(=O)O (stereo not given)', 25),
  ('COc1ccc(-c2nc3ccccc3c(=O)n2C(=O)CCC(N)C(=O)O)cc1 (stereo not given)', 50),
  ('NC(CCC(=O)n1c(-c2ccc(Cl)cc2)nc2ccccc2c1=O)C(=O)O (stereo not given)', 11.2),
  ('NC(CCC(=O)n1c(-c2cc(F)ccc2F)nc2ccccc2c1=O)C(=O)O (stereo not given)', 12.5);

What does the record list as MIC for NC(CCC(=O)n1c(-c2ccc(F)c(F)c2F)nc2ccccc2c1=O)C(=O)O (stereo not given) ?
8

Can you look up the measured MIC of NC(CCC(=O)n1c(-c2ccccc2)nc2ccccc2c1=O)C(=O)O (stereo not given) for me?
50

###

Test system: Bacillus subtilis
method.notes: Antimicrobial activity against Bacillus subtilis NCIM 2999 assessed as growth inhibition by agar streak dilution method
Format: functional
List of MIC values.
Answer in µg/mL, number only, no unit symbol.

// worked examples, MIC included
INSERT INTO measurements (compound, test_value) VALUES
  ('CN[C@@H]1[C@H](O[C@H]2[C@H](O[C@H]3[C@H](O)[C@@H](O)[C@H](N=C(N)N)[C@@H](O)[C@@H]3N=C(N)N)O[C@@H](C)[C@]2(O)C=O)O[C@@H](CO)[C@H](O)[C@H]1O [STREPTOMYCIN]', 5),
  ('NC(CCC(=O)n1c(-c2ccc([N+](=O)[O-])cc2)nc2ccccc2c1=O)C(=O)O (stereo not drawn)', 12.5);

Query: MIC; subject: Cc1ccccc1-c1nc2ccccc2c(=O)n1C(=O)CCC(N)C(=O)O (stereo not drawn)
30

###

System: Candida albicans
method.notes: Antimicrobial activity against Candida albicans NCIM 3102 assessed as growth inhibition by agar streak dilution method
Format: functional
Entries and their measured MIC follow.
// note: answer is a bare numeric in mg/L

// worked examples, MIC included
INSERT INTO results (compound, quantity_name, test_value) VALUES
  ('NC(CCC(=O)n1c(-c2ccc(Cl)cc2)nc2ccccc2c1=O)C(=O)O (stereo not given)', 'MIC', 12),
  ('NC(CCC(=O)n1c(-c2ccccc2)nc2ccccc2c1=O)C(=O)O (stereo not given)', 'MIC', 30),
  ('NC(CCC(=O)n1c(OCc2ccccc2Cl)nc2ccccc2c1=O)C(=O)O (stereo not given)', 'MIC', 25),
  ('Cc1ccccc1-c1nc2ccccc2c(=O)n1C(=O)CCC(N)C(=O)O (stereo not given)', 'MIC', 25),
  ('NC(CCC(=O)n1c(Cc2ccccc2)nc2ccccc2c1=O)C(=O)O (stereo not given)', 'MIC', 100);

Given the entry NC(CCC(=O)n1c(-c2ccc([N+](=O)[O-])cc2)nc2ccccc2c1=O)C(=O)O (stereo not given) , what MIC was observed with Candida albicans?
10

Form field: MIC recorded for NC(CCC(=O)n1c(-c2cc(F)cc(F)c2)nc2ccccc2c1=O)C(=O)O (stereo not given) with Candida albicans (enter value)
15

GET /values?readout=MIC&system=Candida albicans&item= NC(CCC(=O)n1c(-c2ccc(F)c(F)c2F)nc2ccccc2c1=O)C(=O)O (stereo not given)
10

What is its MIC for Candida albicans? Entry: OC(Cn1cncn1)(Cn1cncn1)c1ccc(F)cc1F
5

Requested read-out MIC, target or system Candida albicans, entry NC(CCC(=O)n1c(-c2cc(F)ccc2F)nc2ccccc2c1=O)C(=O)O (stereo not given)
10

###

Readings of zone of inhibition at 100 µg/mL for the listed compounds
Test system: Bacillus subtilis
method.notes: Antimicrobial activity against Bacillus subtilis NCIM 2999 assessed as diameter of growth inhibition zone at 100 ug/ml after 24 hr by paper disk diffusion method
Assay type: functional
condition.description: NCIM 2999, 24 h, read-out: DIZ
Use mm as the unit, but write only the number.

These recorded examples may help you get a feel for the data.
INSERT INTO measurements (compound, test_value) VALUES
  ('NC(CCC(=O)n1c(-c2ccccc2)nc2ccccc2c1=O)C(=O)O (configuration not stated)', 11),
  ('Nc1ccc(-c2nc3ccccc3c(=O)n2C(=O)CCC(N)C(=O)O)cc1 (configuration not stated)', 13),
  ('NC(CCC(=O)n1c(Cc2ccccc2)nc2ccccc2c1=O)C(=O)O (configuration not stated)', 7),
  ('COc1ccc(-c2nc3ccccc3c(=O)n2C(=O)CCC(N)C(=O)O)cc1 (configuration not stated)', 10),
  ('NC(CCC(=O)n1c(OCc2ccccc2Cl)nc2ccccc2c1=O)C(=O)O (configuration not stated)', 14);

Fill in: zone of inhibition at 100 µg/mL of NC(CCC(=O)n1c(-c2ccc(F)c(F)c2F)nc2ccccc2c1=O)C(=O)O (configuration not stated) is ___
13.5

Consider the compound NC(CCC(=O)n1c(-c2ccc([N+](=O)[O-])cc2)nc2ccccc2c1=O)C(=O)O (configuration not stated) and give its measured zone of inhibition at 100 µg/mL.
16

// returns reported zone of inhibition at 100 µg/mL for input Cc1ccccc1-c1nc2ccccc2c(=O)n1C(=O)CCC(N)C(=O)O (configuration not stated)
12

Please report the recorded zone of inhibition at 100 µg/mL for NC(CCC(=O)n1c(-c2cc(F)cc(F)c2)nc2ccccc2c1=O)C(=O)O (configuration not stated) .
16

What measured zone of inhibition at 100 µg/mL goes with NC(CCC(=O)n1c(-c2ccc(O)cc2)nc2ccccc2c1=O)C(=O)O (configuration not stated) ?
9

# input compound: NC(CCC(=O)n1c(-c2ccc(Cl)cc2)nc2ccccc2c1=O)C(=O)O (configuration not stated) ; wanted: its zone of inhibition at 100 µg/mL
12.7

What measured zone of inhibition at 100 µg/mL goes with NC(CCC(=O)n1c(-c2cc(F)ccc2F)nc2ccccc2c1=O)C(=O)O (configuration not stated) ?
12

###

System: Escherichia coli
method.notes: Antimicrobial activity against Escherichia coli NCIM 2574 assessed as diameter of growth inhibition zone at 100 ug/ml after 24 hr by paper disk diffusion method
Assay type: functional
condition.description: NCIM 2574, 24 h, read-out: DIZ
quantity.name: zone of inhibition at 100 µg/mL (mm)
All answers are understood in mm, so give the number only.

INSERT INTO assay_data (molecule, study_system, test_value) VALUES
  ('NC(CCC(=O)n1c(Cc2ccccc2)nc2ccccc2c1=O)C(=O)O (configuration not stated)', 'Escherichia coli', 11),
  ('NC(CCC(=O)n1c(-c2cc(F)cc(F)c2)nc2ccccc2c1=O)C(=O)O (configuration not stated)', 'Escherichia coli', 12),
  ('NC(CCC(=O)n1c(-c2ccc(Cl)cc2)nc2ccccc2c1=O)C(=O)O (configuration not stated)', 'Escherichia coli', 11.5),
  ('Cc1ccccc1-c1nc2ccccc2c(=O)n1C(=O)CCC(N)C(=O)O (configuration not stated)', 'Escherichia coli', 10),
  ('COc1ccc(-c2nc3ccccc3c(=O)n2C(=O)CCC(N)C(=O)O)cc1 (configuration not stated)', 'Escherichia coli', 11);

Return reported zone of inhibition at 100 µg/mL; argument: NC(CCC(=O)n1c(-c2ccc([N+](=O)[O-])cc2)nc2ccccc2c1=O)C(=O)O (configuration not stated)
9

Entry NC(CCC(=O)n1c(OCc2ccccc2Cl)nc2ccccc2c1=O)C(=O)O (configuration not stated) has what zone of inhibition at 100 µg/mL?
10

Please give the measured zone of inhibition at 100 µg/mL for this molecule: NC(CCC(=O)n1c(-c2ccc(F)c(F)c2F)nc2ccccc2c1=O)C(=O)O (configuration not stated)
12.7

Look at this molecule and give its reported zone of inhibition at 100 µg/mL. Nc1ccc(-c2nc3ccccc3c(=O)n2C(=O)CCC(N)C(=O)O)cc1 (configuration not stated)
15

Field request: zone of inhibition at 100 µg/mL | item: NC(CCC(=O)n1c(-c2ccccc2)nc2ccccc2c1=O)C(=O)O (configuration not stated)
15

Find the recorded zone of inhibition at 100 µg/mL belonging to NC(CCC(=O)n1c(-c2ccc(O)cc2)nc2ccccc2c1=O)C(=O)O (configuration not stated) and report it.
15

Requested field: zone of inhibition at 100 µg/mL. Item: NC(CCC(=O)n1c(-c2cc(F)ccc2F)nc2ccccc2c1=O)C(=O)O (configuration not stated)
11

###

System: Pseudomonas aeruginosa
method.notes: Antimicrobial activity against Pseudomonas aeruginosa NCIM 5029 assessed as diameter of growth inhibition zone at 100 ug/ml after 24 hr by paper disk diffusion method
Format: functional
condition.description: NCIM 5029, 24 h, read-out: DIZ
quantity.name: zone of inhibition at 100 µg/mL (mm)
# output: bare number, implied unit mm

// solved cases for zone of inhibition at 100 µg/mL follow
INSERT INTO assay_data (molecule, quantity_name, value_unit, test_value) VALUES
  ('NC(CCC(=O)n1c(-c2ccc(O)cc2)nc2ccccc2c1=O)C(=O)O (configuration not stated)', 'zone of inhibition at 100 µg/mL', 'mm', 13),
  ('NC(CCC(=O)n1c(-c2cc(F)ccc2F)nc2ccccc2c1=O)C(=O)O (configuration not stated)', 'zone of inhibition at 100 µg/mL', 'mm', 17),
  ('Nc1ccc(-c2nc3ccccc3c(=O)n2C(=O)CCC(N)C(=O)O)cc1 (configuration not stated)', 'zone of inhibition at 100 µg/mL', 'mm', 16);

What does the record list as zone of inhibition at 100 µg/mL for NC(CCC(=O)n1c(Cc2ccccc2)nc2ccccc2c1=O)C(=O)O (configuration not stated) ?
11
